Target: PI3Kα (p110α/p85α) (Homo sapiens, UniProt P42336)
Construct: GST (N)
Sequence (P42336 whole entry): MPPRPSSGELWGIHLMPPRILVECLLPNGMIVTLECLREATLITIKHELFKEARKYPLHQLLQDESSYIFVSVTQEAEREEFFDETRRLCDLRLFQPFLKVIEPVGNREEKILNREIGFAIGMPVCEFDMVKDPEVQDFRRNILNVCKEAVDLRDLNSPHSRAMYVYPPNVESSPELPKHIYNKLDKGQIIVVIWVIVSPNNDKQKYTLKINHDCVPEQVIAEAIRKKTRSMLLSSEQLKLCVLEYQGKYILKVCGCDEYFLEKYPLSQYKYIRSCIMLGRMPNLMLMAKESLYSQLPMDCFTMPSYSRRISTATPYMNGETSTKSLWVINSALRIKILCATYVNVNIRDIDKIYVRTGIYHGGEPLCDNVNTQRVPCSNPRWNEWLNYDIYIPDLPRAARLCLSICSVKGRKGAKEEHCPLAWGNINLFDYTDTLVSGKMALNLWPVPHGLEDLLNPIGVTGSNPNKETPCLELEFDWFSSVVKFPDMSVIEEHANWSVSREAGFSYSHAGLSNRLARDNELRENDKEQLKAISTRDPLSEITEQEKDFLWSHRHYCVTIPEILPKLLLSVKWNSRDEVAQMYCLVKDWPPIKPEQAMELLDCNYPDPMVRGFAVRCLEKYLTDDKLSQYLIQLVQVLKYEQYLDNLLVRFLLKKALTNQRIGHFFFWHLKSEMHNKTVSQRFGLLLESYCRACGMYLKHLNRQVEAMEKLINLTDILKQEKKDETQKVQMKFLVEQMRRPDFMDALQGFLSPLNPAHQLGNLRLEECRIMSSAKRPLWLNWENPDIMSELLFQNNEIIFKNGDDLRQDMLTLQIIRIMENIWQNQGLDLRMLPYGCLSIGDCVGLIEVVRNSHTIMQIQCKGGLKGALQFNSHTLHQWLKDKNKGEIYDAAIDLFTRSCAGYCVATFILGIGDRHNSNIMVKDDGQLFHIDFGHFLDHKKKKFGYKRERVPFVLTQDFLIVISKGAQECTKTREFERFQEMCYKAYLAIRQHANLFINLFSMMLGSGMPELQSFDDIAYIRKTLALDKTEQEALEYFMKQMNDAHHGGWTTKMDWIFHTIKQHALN
Sequence (P27986 whole entry partner): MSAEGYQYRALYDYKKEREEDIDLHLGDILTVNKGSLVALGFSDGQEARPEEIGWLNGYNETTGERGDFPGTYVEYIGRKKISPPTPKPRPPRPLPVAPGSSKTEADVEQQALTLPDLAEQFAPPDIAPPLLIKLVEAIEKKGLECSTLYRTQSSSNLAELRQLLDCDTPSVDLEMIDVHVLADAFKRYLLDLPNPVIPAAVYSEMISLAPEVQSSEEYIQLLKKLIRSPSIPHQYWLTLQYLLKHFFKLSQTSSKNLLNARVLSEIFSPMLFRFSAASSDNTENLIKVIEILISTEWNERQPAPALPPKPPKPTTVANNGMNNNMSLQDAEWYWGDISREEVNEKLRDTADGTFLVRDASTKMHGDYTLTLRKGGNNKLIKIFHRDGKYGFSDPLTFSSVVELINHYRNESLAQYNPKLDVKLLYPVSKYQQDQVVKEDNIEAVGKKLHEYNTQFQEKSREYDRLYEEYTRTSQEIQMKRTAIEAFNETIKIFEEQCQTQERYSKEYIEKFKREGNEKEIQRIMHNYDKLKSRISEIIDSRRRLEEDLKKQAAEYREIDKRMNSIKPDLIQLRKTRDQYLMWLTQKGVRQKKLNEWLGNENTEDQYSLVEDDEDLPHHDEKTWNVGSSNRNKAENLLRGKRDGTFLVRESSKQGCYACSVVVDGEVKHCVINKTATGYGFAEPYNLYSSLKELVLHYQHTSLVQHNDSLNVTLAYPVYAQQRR
Experiment: PI3Kα ADP-Glo assay
Details: 20 μM PIP2, 10 μM ATP, 30 minutes
pIC50: −log10 of the molar value.
Readings of pIC50 for the listed compounds

Field: example entries. Status: answers known.
[
  {
    "compound": "CN(Cc1cc2nc(-c3ccc4c(c3)NCCO4)nc(N3CCOCC3)c2s1)c1ncc(C(=O)NO)cn1 [Compound 182]",
    "recorded.measurement": "5.00 to 6.00"
  },
  {
    "compound": "CN(C)c1ccc(-c2nc(N3CCOCC3)c3sc(CN(C)c4ncc(C(=O)NO)cn4)cc3n2)cn1 [Compound 114]",
    "recorded.measurement": "6.00 to 7.00"
  },
  {
    "compound": "Cc1ncc(-c2nc(N3CCOCC3)c3sc(CN(C)c4ncc(C(=O)NO)cn4)cc3n2)cn1 [Compound 120]",
    "recorded.measurement": "> 7.00"
  }
]

Asked: Field: pIC50 (PI3Kα (p110α/p85α) (Homo sapiens, UniProt P42336)). Entry: COCCNc1nc(-c2cccc3[nH]ncc23)nc2cc(CN(C)c3ncc(C(=O)NO)cn3)sc12 [Compound 160]
Given back: < 5.00

Asked: Field: pIC50 (PI3Kα (p110α/p85α) (Homo sapiens, UniProt P42336)). Entry: CN(Cc1cc2nc(-c3ccccc3)nc(N3CCOCC3)c2s1)c1ncc(C(=O)NO)cn1 [Compound 129]
Given back: < 5.00

Asked: Field: pIC50 (PI3Kα (p110α/p85α) (Homo sapiens, UniProt P42336)). Entry: CN(Cc1cc2cc(-c3cccc4[nH]ncc34)nc(N3CCOCC3)c2s1)c1ncc(C(=O)NO)cn1 [Compound 74]
Given back: 6.00 to 7.00

Asked: Field: pIC50 (PI3Kα (p110α/p85α) (Homo sapiens, UniProt P42336)). Entry: O=C(CCCCNc1cc2nc(-c3cc(O)ccc3F)nc(N3CCOCC3)c2s1)NO [Compound 231]
Given back: > 7.00

Asked: Field: pIC50 (PI3Kα (p110α/p85α) (Homo sapiens, UniProt P42336)). Entry: CN(Cc1cc2nc(-c3ccc(C#N)cc3)nc(N3CCOCC3)c2s1)c1ncc(C(=O)NO)cn1 [Compound 146]
Given back: < 5.00

Asked: Field: pIC50 (PI3Kα (p110α/p85α) (Homo sapiens, UniProt P42336)). Entry: CCN(Cc1cc2nc(-c3cccc4[nH]ncc34)nc(N3CCOCC3)c2s1)c1ncc(C(=O)NO)cn1 [Compound 92]
Given back: > 7.00

Asked: Field: pIC50 (PI3Kα (p110α/p85α) (Homo sapiens, UniProt P42336)). Entry: CN(Cc1cc2nc(-c3cccc4[nH]ncc34)nc(NCCO)c2s1)c1ncc(C(=O)NO)cn1 [Compound 161]
Given back: 6.00 to 7.00

Asked: Field: pIC50 (PI3Kα (p110α/p85α) (Homo sapiens, UniProt P42336)). Entry: Nc1ncc(-c2nc(N3CCOCC3)c3sc(NCCCCC(=O)NO)cc3n2)cn1 [Compound 226]
Given back: > 7.00

Asked: Field: pIC50 (PI3Kα (p110α/p85α) (Homo sapiens, UniProt P42336)). Entry: O=C(NO)c1cnc(N(CCCO)Cc2cc3nc(-c4cccc5[nH]ncc45)nc(N4CCOCC4)c3s2)nc1 [Compound 91]
Given back: > 7.00

Asked: Field: pIC50 (PI3Kα (p110α/p85α) (Homo sapiens, UniProt P42336)). Entry: O=C(CCCNCc1cc2nc(-c3cccc4[nH]ncc34)nc(N3CCOCC3)c2s1)NO [Compound 41]
Given back: 6.00 to 7.00

Asked: Field: pIC50 (PI3Kα (p110α/p85α) (Homo sapiens, UniProt P42336)). Entry: CNc1ncc(-c2nc(N3CCOCC3)c3sc(NCCCCC(=O)NO)cc3n2)cn1 [Compound 227]
Given back: > 7.00

Asked: Field: pIC50 (PI3Kα (p110α/p85α) (Homo sapiens, UniProt P42336)). Entry: COc1ccc(-c2nc(N3CCOCC3)c3sc(CN(C)c4ncc(C(=O)NO)cn4)cc3n2)cc1 [Compound 131]
Given back: < 5.00

Asked: Field: pIC50 (PI3Kα (p110α/p85α) (Homo sapiens, UniProt P42336)). Entry: Cn1c(CNCc2cc3nc(-c4ccc(N)cc4)nc(N4CCOCC4)c3s2)nc2cc(/C=C/C(=O)NO)ccc21 [Compound 326]
Given back: 6.00 to 7.00

Asked: Field: pIC50 (PI3Kα (p110α/p85α) (Homo sapiens, UniProt P42336)). Entry: COCCN(CCOC)c1nc(-c2cccc3[nH]ncc23)nc2cc(CN(C)c3ncc(C(=O)NO)cn3)sc12 [Compound 163]
Given back: 6.00 to 7.00

Asked: Field: pIC50 (PI3Kα (p110α/p85α) (Homo sapiens, UniProt P42336)). Entry: CNc1ccc(-c2nc(N3CCOCC3)c3sc(CN(CCO)c4ncc(C(=O)NO)cn4)cc3n2)cn1 [Compound 245]
Given back: > 7.00

Asked: Field: pIC50 (PI3Kα (p110α/p85α) (Homo sapiens, UniProt P42336)). Entry: CC(=O)Nc1ccc(-c2nc(N3CCOCC3)c3sc(CN(C)c4ncc(C(=O)NO)cn4)cc3n2)cn1 [Compound 112]
Given back: > 7.00

Asked: Field: pIC50 (PI3Kα (p110α/p85α) (Homo sapiens, UniProt P42336)). Entry: CN(Cc1cc2nc(-c3ccc(N)c(N)c3)nc(N3CCOCC3)c2s1)c1ncc(C(=O)NO)cn1 [Compound 156]
Given back: 6.00 to 7.00

Asked: Field: pIC50 (PI3Kα (p110α/p85α) (Homo sapiens, UniProt P42336)). Entry: O=C(NO)c1ccc(NCc2cc3nc(-c4cccc5[nH]ncc45)nc(N4CCOCC4)c3s2)nc1 [Compound 76]
Given back: > 7.00

Asked: Field: pIC50 (PI3Kα (p110α/p85α) (Homo sapiens, UniProt P42336)). Entry: CNc1ccc(-c2nc(N3CCOCC3)c3sc(CNCc4nc5cc(/C=C/C(=O)NO)ccc5n4C)cc3n2)cn1 [Compound 328]
Given back: > 7.00

Asked: Field: pIC50 (PI3Kα (p110α/p85α) (Homo sapiens, UniProt P42336)). Entry: COc1ccc(-c2nc(N3CCOCC3)c3sc(C(C)N(C)c4ncc(C(=O)NO)cn4)cc3n2)cn1 (stereo not drawn) [Compound 247]
Given back: > 7.00

Asked: Field: pIC50 (PI3Kα (p110α/p85α) (Homo sapiens, UniProt P42336)). Entry: CS(=O)(=O)N1CCN(Cc2cc3nc(-c4cccc5nn(CCCCCC(=O)NO)cc45)nc(N4CCOCC4)c3s2)CC1 [Compound 8]
Given back: < 5.00

---

Tested on: HDACs (HeLa cell nuclear extracts)
Assay: HDAC enzymatic activity, Biomol Color de Lys system
Type: biochemical
Settings: 1 hour, 25° C.
pIC50: −log10 of the molar value.
property.measured: pIC50

Asked: What value of pIC50 has been reported for the following compound? `Nc1ccc(-c2nc(N3CCOCC3)c3sc(CNc4ncc(C(=O)NO)cn4)cc3n2)cc1`
Given back: > 7.00

Asked: What value of pIC50 has been reported for the following compound? `Nc1ncc(-c2nc(N3CCOCC3)c3sc(NS(=O)(=O)c4cccc(/C=C/C(=O)NO)c4)cc3n2)cn1`
Given back: > 7.00

Asked: What value of pIC50 has been reported for the following compound? CNc1ccc(-c2nc(N3CCOCC3)c3sc(C(C)N(C)c4ncc(C(=O)NO)cn4)cc3n2)cn1 (stereo not shown)
Given back: > 7.00

Asked: What value of pIC50 has been reported for the following compound? `CN(Cc1cc2nc(-c3cccc4[nH]ncc34)nc(Nc3ccccn3)c2s1)c1ncc(C(=O)NO)cn1`
Given back: > 7.00

---

Molecular target: PI3Kα (p110α/p85α) (Homo sapiens)
Construct: GST (N)
Test: PI3Kα ADP-Glo assay
Settings: 20 μM PIP2, 10 μM ATP, 30 minutes
Description: (A) an In Vitro Assay which Determines the Ability of a Test Compound to Inhibit PI3Kα. Activity of PI3Kα was measured using ADP-Glo assay from Promega. […] The ADP generated was then detected by ADP-Glo assay from Promega, a luminescent ADP detection assay. […] Second, the Kinase Detection Reagent is added to simultaneously convert ADP to ATP and allow the newly synthesized ATP to be measured using a luciferase/luciferin reaction.
pIC50: −log10 of the molar value.
property.measured: pIC50

[
  {
    "compound": "CN(c1ncc(C(=O)NO)cn1)c1cc2nc(-c3ccc(N)cc3)nc(N3CCOCC3)c2s1 [Compound 272]",
    "pIC50": "> 7.00"
  },
  {
    "compound": "CS(=O)(=O)N1CCN(Cc2cc3nc(-c4cccc5[nH]ncc45)nc(N4CCN(CCCCC(=O)NO)CC4)c3s2)CC1 [Compound 30]",
    "pIC50": "< 5.00"
  },
  {
    "compound": "O=C(/C=C/c1ccc(NCc2cc3nc(-c4cccc5[nH]ncc45)nc(N4CCOCC4)c3s2)cc1)NO [Compound 80]",
    "pIC50": "> 7.00"
  },
  {
    "compound": "CN(Cc1cc2nc(-c3ccc4[nH]ccc4c3)nc(N3CCOCC3)c2s1)c1ncc(C(=O)NO)cn1 [Compound 192]",
    "pIC50": "6.00 to 7.00"
  }
]

Asked: What value of pIC50 has been reported for the following compound? CN(Cc1cc2nc(-c3cnc(C(N)=O)nc3)nc(N3CCOCC3)c2s1)c1ncc(C(=O)NO)cn1 [Compound 122]
Given back: > 7.00

Asked: What value of pIC50 has been reported for the following compound? CS(=O)(=O)N1CCN(Cc2cc3nc(-c4cccc5nn(CCCCCCC(=O)NO)cc45)nc(N4CCOCC4)c3s2)CC1 [Compound 9]
Given back: < 5.00

Asked: What value of pIC50 has been reported for the following compound? O=C(/C=C/c1cc2nc(-c3cccc4[nH]ncc34)nc(N3CCOCC3)c2s1)NO [Compound 46]
Given back: 6.00 to 7.00
